Where these numbers come from: the supplement of paper PMC12137928

- Tested on: HCT116
- Experimental Context: 72 h; ICRF193 200 nM
Counter-ions that a name gives are not always drawn.
Result Type: IC50 cell viability

CC(C)(C)NC[C@H](O)COc1ccccc1C1CCCC1 [Penbutolol sulfate]; 20.6 µM
CC(C)COC(=O)OCN1C(=O)CN(CCN2CC(=O)N(COC(=O)OCC(C)C)C(=O)C2)CC1=O; > 45.8 µM
CN[C@@H]1[C@@H](O)[C@@H](O[C@@H]2[C@H](O)[C@H](O[C@H]3OC(CN)=CC[C@H]3N)[C@@H](N)C[C@H]2N)OC[C@]1(C)O; > 45.8 µM
CCC1(C)CC(=O)NC(=O)C1 [Bemegride]; > 45.8 µM

----------
- System: HCT116
- Experimental Context: 72 h; ICRF193 0 nM
Structures can show the parent of a compound that is named as a salt.
Result Type: IC50 cell viability

CCOC(=O)c1ccc(OCCN2C[C@H](O)[C@@H](O)[C@H](O)[C@H]2CO)cc1 [Emiglitate]; > 45.8 µM
COc1ccc(C(=O)NCc2ccc(OCCN(C)C)cc2)cc1OC [Itopride hydrochloride]; > 45.8 µM
CCCCCCCCCCCCCC(=O)OC(C)C [Isopropyl tetradecanoic acid]; > 45.8 µM
O[C@@H]1CO[C@H]2[C@@H]1OC[C@@H]2O [Isosorbide]; > 45.8 µM
CC1(C)OC(=O)C(OCC2CC2)=C1c1ccc(S(C)(=O)=O)cc1 [FIROCOXIB]; > 45.8 µM
CN1CCC(=C2c3ccccc3CC(=O)c3sccc32)CC1 [Ketotifen]; > 45.8 µM
O=C(O)COC(=O)Cc1ccccc1Nc1c(Cl)cccc1Cl [Aceclofenac]; > 45.8 µM
Cc1cc(C(C#N)c2ccc(Cl)cc2)c(Cl)cc1NC(=O)c1cc(I)cc(I)c1O (centres undefined) [Closantel]; 9.2 µM
Cc1c(C(=O)NN2CCCCC2)nn(-c2ccc(Cl)cc2Cl)c1-c1ccc(Cl)cc1 [Rimonabant]; 18.3 µM

----------
- Test system: HCT116
- Experiment: efficacy (maximum % inhibition of viability vs DMSO); higher = more cytotoxic
- Experimental Context: 72 h; ICRF193 200 nM
Where a name gives a salt, the structure may show the parent alone.
Recorded measurements of efficacy, one per entry
Result Type: efficacy (%)

CN(C)C(=O)C(CCN1CCC(O)(c2ccc(Cl)cc2)CC1)(c1ccccc1)c1ccccc1 [Loperamide hydrochloride]; 54.9
C[C@H]1C[C@H]2[C@@H]3CCC4=CC(=O)C=C[C@]4(C)[C@@]3(Cl)[C@@H](O)C[C@]2(C)[C@@]1(O)C(=O)CO; 86.6
O=C(CCCN1CCN(c2ccc(F)cc2)CC1)NC1c2ccccc2CSc2ccccc21 (centres undefined) [Monatepil]; 93.7
CCCCCCCC(=O)N[C@H](CN1CCCC1)[C@H](O)c1ccc2c(c1)OCCO2 [Eliglustat (Tartrate)]; 44.2

----------
- System: HCT116
- Experimental Context: 72 h; ICRF193 0 nM
Structures can show the parent of a compound that is named as a salt.
Result Type: IC50 cell viability

CCCN(CCC)S(=O)(=O)c1ccc(C(=O)O)cc1 [Probenecid]; > 45.8 µM
Cc1[nH]c(=O)c(C#N)cc1-c1ccncc1 [Milrinone]; > 45.8 µM
O=C(Nc1ccccc1)OCC(CN1CCCCC1)OC(=O)Nc1ccccc1 (stereo unspecified) [Diperodon hydrochloride]; > 45.8 µM
CC(C)CN(C[C@@H](OP(=O)(O)O)[C@H](Cc1ccccc1)NC(=O)O[C@H]1CCOC1)S(=O)(=O)c1ccc(N)cc1 [Fosamprenavir (Calcium Salt)]; > 45.8 µM
CN(C)CCC(c1ccc(Br)cc1)c1ccccn1 (stereo unspecified) [Brompheniramine (maleate)]; > 45.8 µM
COc1ccc([C@@H]2Sc3ccccc3N(CCN(C)C)C(=O)[C@@H]2OC(C)=O)cc1 [Diltiazem]; > 45.8 µM
CC(C)OC(=O)CCC/C=C\C[C@@H]1[C@@H](/C=C/[C@@H](O)COc2cccc(C(F)(F)F)c2)[C@H](O)C[C@@H]1O [Travoprost]; 14.6 µM
C=C(C)[C@H]1CN[C@H](C(=O)O)[C@H]1CC(=O)O [Kainic acid]; > 45.8 µM
CO/N=C(\C(=O)N[C@@H]1C(=O)N2C(C(=O)[O-])=C(C[n+]3ccc(N)n3CCO)CS[C@H]12)c1csc(N)n1 [Cefoselis (sulfate)]; > 45.8 µM
C[C@@H]1C[C@H]2[C@@H]3CCC4=CC(=O)C=C[C@]4(C)[C@@]3(F)[C@@H](O)C[C@]2(C)[C@@]1(O)C(=O)COP(=O)(O)O [Dexamethasone 21-phosphate disodium salt]; > 45.8 µM
C[C@H](N)[C@H](O)c1ccc(O)c(O)c1 [Levonordefrin]; > 45.8 µM
Clc1ccc2c(c1)C(N1CCNCC1)=Nc1ccccc1O2 [Amoxapine]; > 45.8 µM
Cc1c(C(C)C)c(=O)n(-c2ccccc2)n1C [Propyphenazone]; > 45.8 µM
NC(=O)NC(=O)Cc1ccccc1 [Phenacemide]; > 45.8 µM
CNC(=O)C[C@@H](N)C(=O)N[C@@H](C(=O)N[C@@H]1C(=O)N2[C@@H]1SC(C)(C)[C@@H]2C(=O)O)c1ccc(O)cc1 [Aspoxicillin]; > 45.8 µM
N[C@@H]1CCCCN(c2c(F)cc3c(=O)c(C(=O)O)cn(C4CC4)c3c2Cl)C1 [Besifloxacin Hydrochloride]; > 45.8 µM
